Data origin: paper PMC2693028

Molecular target: Enoyl reducase (ENR) from Bacillus anthracis (BaENR) (Bacillus anthracis, UniProt A0A6L8PBX8)
Sequence (A0A6L8PBX8 1-256): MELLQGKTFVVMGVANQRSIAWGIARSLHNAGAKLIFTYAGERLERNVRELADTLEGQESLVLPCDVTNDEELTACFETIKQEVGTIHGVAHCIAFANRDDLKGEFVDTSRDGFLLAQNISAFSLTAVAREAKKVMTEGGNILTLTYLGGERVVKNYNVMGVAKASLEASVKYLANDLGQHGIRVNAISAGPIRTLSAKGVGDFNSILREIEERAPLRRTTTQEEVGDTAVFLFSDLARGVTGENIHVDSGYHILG
Assay: biochemical
Details: IC50
The following compounds are shown together with reported IC50 values.
Note: unit nM is implicit; provide only the numeric part.

Field: example entries. Status: answers known.
molecule smiles	measure unit	IC50
CCCc1ccc(Oc2ccc(S(C)(=O)=O)cc2)c(O)c1	nM	2200
Oc1ccc(Oc2ccccc2)c(O)c1	nM	6300
CCCc1ccc(Oc2cccc(CCC(=O)OC)c2)c(O)c1	nM	7500

# input Identify IC50 associated with the compound CCCc1ccc(Oc2ccc(SC)cc2)c(O)c1
# output 600

# input Note down IC50 recorded for CCCc1ccc(Oc2ccc([N+](=O)[O-])cc2Cl)c(O)c1
# output 500
